test system: DENV2 (clinical isolate); test: DENV2 clinical isolate CPE inhibition in BHK-21 cells (MTT); type: cell-based, dengue virus; settings: read-out: EC50 (inhibition of virus-induced CPE); Dengue-2 clinical isolate, BHK-21
ENDPOINT_LABEL: pEC50
Give bare numbers, as −log10 of the molar value.

// pEC50 value for CNc1nc(N)nc2c1ncn2[C@@H]1O[C@H](CO[P@](=O)(N[C@@H](C)C(=O)OC(C)C)Oc2ccccc2)[C@@H](O)[C@@]1(C)F : 5.96

###

test system: BHK-21 cells; conditions: hamster
ENDPOINT_LABEL: CC50

Form field, CC50 with BHK-21 cells, item CNc1nc(N)nc2c1ncn2[C@@H]1O[C@H](CO[P@](=O)(N[C@@H](C)C(=O)OC(C)C)Oc2ccccc2)[C@@H](O)[C@@]1(C)F [AT-281] : > 170 µM

###

tested on: Rhinovirus; experiment: Antiviral specificity panel, Rhinovirus in H1-HeLa; format: cell-based; conditions: Enterovirus, Rhinovirus (RNA), read-out: EC50 (inhibit viral replication 50%)
ENDPOINT_LABEL: EC50

Form field, EC50 with Rhinovirus, item CNc1nc(N)nc2c1ncn2[C@@H]1O[C@H](CO[P@](=O)(N[C@@H](C)C(=O)OC(C)C)Oc2ccccc2)[C@@H](O)[C@@]1(C)F : > 100 µM

###

test system: HCV; assay: Antiviral specificity panel, HCV in Huh-7; format: cell-based, hepatitis C virus; conditions: Hepatitis C virus, HCV (RNA), read-out: EC50 (inhibit viral replication 50%)
ENDPOINT_LABEL: EC50 (µM)
Numbers only, in µM.

// EC50 value for CNc1nc(N)nc2c1ncn2[C@@H]1O[C@H](CO[P@](=O)(N[C@@H](C)C(=O)OC(C)C)Oc2ccccc2)[C@@H](O)[C@@]1(C)F : 0.05

###

test: Plasma pharmacokinetics in cynomolgus monkeys after oral AT-752; settings: male, cynomolgus, cynomolgus monkey, in vivo, po, 300 mg/kg
ENDPOINT_LABEL: Tmax
Record the result as number plus unit.

// Tmax value for CNc1nc(N)nc2c1ncn2[C@@H]1O[C@H](CO[P@](=O)(O)N[C@@H](C)C(=O)O)[C@@H](O)[C@@]1(C)F : 2 h

###

experiment: in vivo; conditions: male, cynomolgus, cynomolgus monkey, po, 300 mg/kg
ENDPOINT_LABEL: Cmax (µM)
Give bare numbers, in µM.

// Cmax value for CNc1nc(N)nc2c1ncn2[C@@H]1O[C@H](CO[P@](=O)(N[C@@H](C)C(=O)OC(C)C)Oc2ccccc2)[C@@H](O)[C@@]1(C)F : 3.7

###

experiment: in vivo; details: male, CD-1, mouse, po, 420 mg/kg
ENDPOINT_LABEL: Cmax (µM)
One number for each entry, in µM.

// Cmax value for CNc1nc(N)nc2c1ncn2[C@@H]1O[C@H](CO[P@](=O)(N[C@@H](C)C(=O)OC(C)C)Oc2ccccc2)[C@@H](O)[C@@]1(C)F : 2.6

###

test: in vitro; details: dog
ENDPOINT_LABEL: CC50

// CC50 value for CNc1nc(N)nc2c1ncn2[C@@H]1O[C@H](CO[P@](=O)(N[C@@H](C)C(=O)OC(C)C)Oc2ccccc2)[C@@H](O)[C@@]1(C)F : > 100 µM

###

test system: flaviviruses; assay: microbe, parasite or virus in culture; conditions: Dengue virus, DENV2 / DENV3, read-out: EC50 values, all other flaviviruses tested
pEC50: −log10 of the molar value.
ENDPOINT_LABEL: pEC50

// pEC50 value for CNc1nc(N)nc2c1ncn2[C@@H]1O[C@H](CO[P@](=O)(N[C@@H](C)C(=O)OC(C)C)Oc2ccccc2)[C@@H](O)[C@@]1(C)F : 5.85 to 6.72

###

tested on: Chikungunya virus; assay: Antiviral specificity panel, Chikungunya in Huh-7; assay type: cell-based; details: Chikungunya (RNA), read-out: EC50 (inhibit viral replication 50%)
ENDPOINT_LABEL: EC50
Record the result as number plus unit.

// EC50 value for CNc1nc(N)nc2c1ncn2[C@@H]1O[C@H](CO[P@](=O)(N[C@@H](C)C(=O)OC(C)C)Oc2ccccc2)[C@@H](O)[C@@]1(C)F [AT-281] : 54.2 µM

###

test: Plasma pharmacokinetics in cynomolgus monkeys after oral AT-752; conditions: male, cynomolgus, cynomolgus monkey, in vivo, po, 300 mg/kg
ENDPOINT_LABEL: AUC(0-t)

CNc1nc(N)nc2c1ncn2[C@@H]1O[C@H](CO[P@](=O)(O)N[C@@H](C)C(=O)O)[C@@H](O)[C@@]1(C)F [AT-551] = 9.7 µM·h

// AUC(0-t) value for C[C@@]1(F)[C@H](O)[C@@H](CO)O[C@H]1n1cnc2c(=O)[nH]c(N)nc21 [AT-273, 2′-fluoro-2′-C-methyl guanosine] : 7.8 µM·h

###

assay: Cardiomyocyte assay (CellTiter Glo); type: cell-based; settings: human iPS cardiomyocytes
ENDPOINT_LABEL: CC50 at 3 days (µM)
Numbers only, in µM.

// CC50 at 3 days value for COc1cc2nc(N3CCN(C(=O)C4COc5ccccc5O4)CC3)nc(N)c2cc1OC (centres unmarked) [doxazosin, reference compound] : 7

###

system: Adenovirus; assay: Antiviral specificity panel, Adenovirus in Vero; type: cell-based; details: unidentified adenovirus, Adenovirus (DNA), read-out: EC50 (inhibit viral replication 50%)
pEC50: −log10 of the molar value.
ENDPOINT_LABEL: pEC50

// pEC50 value for CNc1nc(N)nc2c1ncn2[C@@H]1O[C@H](CO[P@](=O)(N[C@@H](C)C(=O)OC(C)C)Oc2ccccc2)[C@@H](O)[C@@]1(C)F : < 4.00

###

experiment: Plasma pharmacokinetics in CD-1 mice after oral AT-752; conditions: male, CD-1, mouse, in vivo, 420 mg/kg
ENDPOINT_LABEL: Tmax (min)
Numbers only, in min.

// Tmax value for CNc1nc(N)nc2c1ncn2[C@@H]1O[C@H](CO[P@](=O)(O)N[C@@H](C)C(=O)O)[C@@H](O)[C@@]1(C)F [AT-551] : 30

###

tested on: HIV-1; test: Antiviral specificity panel, HIV-1 in CEM-SS; format: cell-based; conditions: Human immunodeficiency virus 1, HIV-1 (RNA), read-out: EC50 (inhibit viral replication 50%)
ENDPOINT_LABEL: EC50

// EC50 value for CNc1nc(N)nc2c1ncn2[C@@H]1O[C@H](CO[P@](=O)(N[C@@H](C)C(=O)OC(C)C)Oc2ccccc2)[C@@H](O)[C@@]1(C)F [AT-281] : > 100 µM

###

assay: in vitro; details: African green monkey
ENDPOINT_LABEL: CC50

// CC50 value for CNc1nc(N)nc2c1ncn2[C@@H]1O[C@H](CO[P@](=O)(N[C@@H](C)C(=O)OC(C)C)Oc2ccccc2)[C@@H](O)[C@@]1(C)F : > 100 µM

###

experiment: in vitro; conditions: human, hamster
ENDPOINT_LABEL: CC50

// CC50 value for CNc1nc(N)nc2c1ncn2[C@@H]1O[C@H](CO[P@](=O)(N[C@@H](C)C(=O)OC(C)C)Oc2ccccc2)[C@@H](O)[C@@]1(C)F : 85 to 170 µM

###

assay: Plasma pharmacokinetics in CD-1 mice after oral AT-752; conditions: male, CD-1, mouse, in vivo, 420 mg/kg
ENDPOINT_LABEL: AUC(0-t) (µM·h)
Give bare numbers, in µM·h.

C[C@@]1(F)[C@H](O)[C@@H](CO)O[C@H]1n1cnc2c(=O)[nH]c(N)nc21 = 18.8

# input for lookup
// AUC(0-t) value for CNc1nc(N)nc2c1ncn2[C@@H]1O[C@H](CO[P@](=O)(O)N[C@@H](C)C(=O)O)[C@@H](O)[C@@]1(C)F : 58.7

###

assay: in vitro; conditions: Sprague Dawley, rat, plasma
ENDPOINT_LABEL: half-life

// half-life value for CNc1nc(N)nc2c1ncn2[C@@H]1O[C@H](CO[P@](=O)(N[C@@H](C)C(=O)OC(C)C)Oc2ccccc2)[C@@H](O)[C@@]1(C)F : < 3 min

###

assay: Cytotoxicity in uninfected BHK-21 cells (MTT, DENV2 study); format: cell-based; conditions: hamster, BHK-21 without virus, Dengue-2 clinical isolate study, bound = highest concentration tested
ENDPOINT_LABEL: CC50 at 3 days

// CC50 at 3 days value for CNc1nc(N)nc2c1ncn2[C@@H]1O[C@H](CO[P@](=O)(N[C@@H](C)C(=O)OC(C)C)Oc2ccccc2)[C@@H](O)[C@@]1(C)F : > 170 µM

The origin of these recorded values is paper PMC8522752.
